test system: P93_24; assay: qHTS profiling for inhibitors of Plasmodium falciparum proliferation (AID 504749); also: nearly all actives have a fitted effect of over 60% in size; also: potency is read from the fitted curve at half-maximal effect; conditions: P. falciparum in erythrocytes, SYBR Green DNA, 72 h; series mostly up to 28.7 µM
Results filed as inconclusive are left out. Activity calls are given as the source filed them. Calls follow the shape of the dose curve; as a rule, active = well fitted inhibition curve with a large enough effect; inconclusive = small, poorly fitted or top-dose-only effect; inactive = flat fitted curve, though single readings scatter.
Result type: Potency

>  <Compound>
CC(CN1CC(=O)NC(=O)C1)N1CC(=O)NC(=O)C1 (stereo unspecified)

>  <Experimental system>
P93_24

>  <Assay result>
inactive

$$$$
>  <Compound>
O=C(O)[C@H]1C[C@@H](CP(=O)(O)O)CCN1

>  <Experimental system>
P93_24

>  <Assay result>
inactive

$$$$
>  <Compound>
CCN(CC)C(=O)[C@@]1(c2ccccc2)C[C@@H]1CN

>  <Experimental system>
P93_24

>  <Assay result>
inactive

$$$$
>  <Compound>
CN1[C@@H]2CC[C@@H]1CC(OC(=O)[C@H](CO)c1ccccc1)C2 (stereo partly specified)

>  <Experimental system>
P93_24

>  <Assay result>
inactive

$$$$
>  <Compound>
NC(=O)c1ncn(C2OC(CO)C(O)C2O)c1N (stereo unspecified)

>  <Experimental system>
P93_24

>  <Assay result>
inactive

$$$$
>  <Compound>
CC1(C)CC1C(=O)N/C(=C/CCCCSCC(N)C(=O)O)C(=O)O (stereo unspecified)

>  <Experimental system>
P93_24

>  <Assay result>
inactive

$$$$
>  <Compound>
Cc1ccc(S(=O)(=O)NC(=O)NC(C)Cc2ccccc2)cc1 (stereo unspecified)

>  <Experimental system>
P93_24

>  <Assay result>
inactive

$$$$
>  <Compound>
CO/N=C(/C(=O)N[C@@H]1C(=O)N2C(C(=O)O)=C(CSc3nc(C)c(CC(=O)O)s3)CS[C@H]12)c1csc(N)n1

>  <Experimental system>
P93_24

>  <Assay result>
inactive

$$$$
>  <Compound>
CC1CCC(C(C)C)C(O)C1 (stereo unspecified)

>  <Experimental system>
P93_24

>  <Assay result>
inactive

$$$$
>  <Compound>
COc1cc(/C=C2\CCC/C(=C\c3ccc(O)c(OC)c3)C2=O)ccc1O

>  <Experimental system>
P93_24

>  <Assay result>
12.6 µM (active)

$$$$
>  <Compound>
C[N+]12CCCC[C@@H]1CCC(=C(c1cccs1)c1cccs1)C2 (stereo partly specified)

>  <Experimental system>
P93_24

>  <Assay result>
7.94 µM (active)

$$$$

###

system: DIV17; test: qHTS profiling for inhibitors of Plasmodium falciparum proliferation (AID 504749); also: nearly all actives have a fitted effect of over 60% in size; details: P. falciparum in erythrocytes, SYBR Green DNA, 72 h; series mostly up to 28.7 µM
Results filed as inconclusive are left out. Active and inactive are the calls of the source. The call rests on the fitted dose curve; in most records, active means well fitted inhibition curve with a large enough effect; inconclusive means small, poorly fitted or top-dose-only effect; inactive means flat fitted curve, though single readings scatter.
Labels: YES (active), NO (inactive)

>  <Molecule>
C=C(CC[C@@H](C)[C@H]1CCC2[C@]1(C)CC[C@]13C[C@@]14CCC(OC(=O)/C=C/c1ccc(O)c(OC)c1)C(C)(C)[C@@H]4CC[C@@]23C)C(C)C (some centres not stated)

>  <Answer label>
NO

$$$$
>  <Molecule>
O=c1[nH]c(=O)n(C2C[C@H](O)[C@@H](CO)O2)cc1C(F)(F)F (some centres not stated)

>  <Answer label>
NO

$$$$
>  <Molecule>
O=C(NC(CO)C(O)c1ccc([N+](=O)[O-])cc1)C(Cl)Cl (configuration not stated)

>  <Answer label>
NO

$$$$
>  <Molecule>
CCC(=O)O[C@]1(C(=O)CCl)[C@@H](C)CC2C3C[C@H](F)C4=CC(=O)C=CC4(C)[C@@]3(F)C(O)CC21C (some centres not stated)

>  <Answer label>
YES

$$$$
>  <Molecule>
CCOC(=O)C(CCc1ccccc1)NC(C)C(=O)N1Cc2cc(OC)c(OC)cc2CC1C(=O)O (configuration not stated)

>  <Answer label>
YES

$$$$
>  <Molecule>
CO/N=C(/C(=O)N[C@@H]1C(=O)N2C(C(=O)O)=C(CSc3cnns3)CS[C@H]12)c1csc(N)n1

>  <Answer label>
NO

$$$$
>  <Molecule>
NC[C@@H]1O[C@H](OC2[C@@H](CO)O[C@@H](OC3[C@H](O)[C@H](N)C[C@H](N)[C@H]3OC3O[C@H](CO)[C@@H](O)[C@H](O)[C@@H]3N)[C@H]2O)C(N)[C@H](O)[C@@H]1O (some centres not stated)

>  <Answer label>
NO

$$$$

Hello, the source for this data is PubChem BioAssay (NCATS), in case you need it.
